For each record, write down the corresponding cAMP released with respect to control, 10 nM peptide, UMR-106 cells.
Target: T1, rat PTH-1R (rat PTHR endogenously expressed on UMR-106 rat osteosarcoma cells) (rat, UniProt P25961 27-591)
T1 sequence (looked up): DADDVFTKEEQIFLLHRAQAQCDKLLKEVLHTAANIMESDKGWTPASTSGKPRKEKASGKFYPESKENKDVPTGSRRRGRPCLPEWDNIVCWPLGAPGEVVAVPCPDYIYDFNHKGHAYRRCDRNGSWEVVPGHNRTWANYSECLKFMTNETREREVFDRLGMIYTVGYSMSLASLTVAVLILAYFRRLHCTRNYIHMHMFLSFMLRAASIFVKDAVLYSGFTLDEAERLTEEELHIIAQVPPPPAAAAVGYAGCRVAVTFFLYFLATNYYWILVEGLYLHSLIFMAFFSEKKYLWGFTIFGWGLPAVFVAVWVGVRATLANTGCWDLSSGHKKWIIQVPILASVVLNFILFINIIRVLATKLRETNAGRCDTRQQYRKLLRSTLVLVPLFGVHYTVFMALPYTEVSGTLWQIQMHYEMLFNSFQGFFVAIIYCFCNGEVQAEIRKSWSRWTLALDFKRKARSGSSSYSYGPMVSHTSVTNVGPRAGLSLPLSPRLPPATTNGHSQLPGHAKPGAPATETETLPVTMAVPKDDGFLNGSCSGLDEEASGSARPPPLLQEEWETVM
Test: cell-based or functional assay
Where no end group is shown, it is not given here. [ ]: non-standard residue; d: D form. αMePhe(2,6-F2) = C[C@](N)(Cc1c(F)cccc1F)C(=O)O; αMePhe(2-F) = C[C@](N)(Cc1ccccc1F)C(=O)O; hArg = N=C(N)NCCCC[C@H](N)C(=O)O; αMeF = C[C@](N)(Cc1ccccc1)C(=O)O; Cit = NC(=O)NCCC[C@H](N)C(=O)O; αMeP = C[C@@]1(C(=O)O)CCCN1; Nle = CCCC[C@H](N)C(=O)O; Ac5c = NC1(C(=O)O)CCCC1; Ac3c = NC1(C(=O)O)CC1; Aib = CC(C)(N)C(=O)O

Requested field: cAMP released with respect to control, 10 nM peptide, UMR-106 cells. Item: [Aib]V[Aib]EIQ[αMePhe(2,6-F2)][Nle]HQ[αMePhe(2,6-F2)][Aib][Cit][αMePhe(2,6-F2)] [Seq. ID. 486]
82 percent of control

GET /values?readout=cAMP released with respect to control, 10 nM peptide, UMR-106 cells&item= [Ac3c]V[Aib]EIQ[αMePhe(2-F)][Nle]HQ[hArg][αMeP]K[αMePhe(2-F)] [Seq. ID. 59]
66 percent of control

Value lookup for cAMP released with respect to control, 10 nM peptide, UMR-106 cells; key = [Ac5c]V[Ac5c]EIQ[αMePhe(2,6-F2)][Nle]HQ[hArg][Aib][Aib][αMePhe(2,6-F2)] [Seq. ID. 198]
71 percent of control

Fill in the blank: the reported cAMP released with respect to control, 10 nM peptide, UMR-106 cells of [Ac5c]V[Aib]EIQLMHQ[hArg][Aib]K[αMeF] [Seq. ID. 20] is ____.
111 percent of control

Find the recorded cAMP released with respect to control, 10 nM peptide, UMR-106 cells belonging to [Ac3c]V[Aib]EIQL[Nle]HQ[hArg][Aib]K[αMeF] [Seq. ID. 15] and report it.
78 percent of control

Values were extracted from patent US8383581B2.
